# Tested on: LPESG (Abz-LPESGK(Dnp)-CONH2)
# protocol details: In vitro sortase kinetics HPLC assay, LPESG substrate
# Type: biochemical
# details: Example 5 variants; substrate 4S (LPESG)
readout kind: Avg kcat (Hz)
Express it in Hz; write the number only.

Before answering, review these 2 worked examples.
• eSrtA(4S-3): round 3 LPESG clone: eSrtA + N98S A104T A118T F122S D124G K134R K173E K177E I182V (protein) QAKPQIPKDKSKVAGYIEIPDADIKEPVYPGPATREQLSRGVSFTEENESLDDQNISITGHTSIGRPNYQFTNLRAAKKGSMVYFKVGNETRKYKMTSIRNVKPTAVEVLDEQEGKDEQLTLVTCDDYNEETGVWETRKIFVATEVK = 2.543
• eSrtA(4S-9): P94R, N98D, S102C, A104V, A118T, F122A, K134R, F144L, D160N, D165A, I182V, E189F, K190E, K196T (protein) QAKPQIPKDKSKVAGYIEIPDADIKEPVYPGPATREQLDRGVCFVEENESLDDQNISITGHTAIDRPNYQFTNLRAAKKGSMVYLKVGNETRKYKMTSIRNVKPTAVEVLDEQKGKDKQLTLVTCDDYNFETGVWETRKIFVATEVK = 2.146

Then there is this molecule:
Query: What Avg kcat (Hz) value was documented for this molecule, eSrtA(4S-3.5) (protein) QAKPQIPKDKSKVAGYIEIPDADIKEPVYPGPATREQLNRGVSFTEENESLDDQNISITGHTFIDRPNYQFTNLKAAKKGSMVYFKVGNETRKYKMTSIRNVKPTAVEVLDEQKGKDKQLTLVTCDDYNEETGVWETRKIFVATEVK ?
Result: 5.779
